Data provenance: patent US20250027068

Biological target: pooled human IgG
Measurement Label: Enzyme Activity Endpoint Assay (purified): scIgG (ng/µL)

* PRT-135 (protein) MRNATEAYAKEVPHQITSVWTKGVTPLTPEQFRYNNEDVIHAPYLAHQGWYDITKAFDGKDNLLCGAATAGNMLHWWFDQNKTEIEAYLSKHPEKQKIIFNNQELFDLKAAIDTKDSQTNSQLFNYFRDKAFPNLSARQLGVMPDLVLDMFINGYYLNVFKTQSTDVNRPYQDKDKRGGIFDAVFTRGDQTTLLTARHDLKNKGLNDISTIIKQELTEGKALALSHTYANVSISHVINLWGADFNAEGNLEAIYVTDSDANASIGMKKYFVGINAHGHVAISAKKIEGENIGAQVLGLFTLSSGKDIWQKLS | 6
* PRT-75 (protein) MANQEIRYSEVTPYHVTSVWTKGVTPPAKFTQGEDVFHAPYVANQGWYDITKTFNGKDDLLCGAATAGNMLHWWFDQNKEKIEAYLKKHPEKQKIMFGDQELLDVRKVINTKDDQTNSELFNYFRDKAFPGLSARRLGVMPDLVLDMFINGYRLNVTKTQTTDVNETYQTKDKRGGIFDAVFTRGDQSKLLTSRHDFKEKNLKEISDLIKKELTEGKALGLSHTYANVRINHVINLWGADFDSNGNLKAIYVTDSDSNASIGMKKYFVGVNSAGKVAISAKEIKDDNIGAQVLGLFTLSTGQDIWNQTN | 54
* PRT-128 (protein) MRNATEAYAKEVPKQITSVWTKGVTPPTPEQFRYNNEDVIHAPYLANQGWYDITKTFNGKDNLLCGAATAGNMLHWWFDQNKTEIEAYLSKHPEKQKIIFNNQELFDLKAAIDTKDSQTNSQLFNYFRDKAFPNLSARQLGVMPDLVLDMFINGYYLNVFKTQSTDVNRPYQDKDKRGGIFDAVFTRGDQTTLLTARHDLKNKTLNDISTLIKQELTEGKALALSHTYANVSISHVINLWGADFNAEGNLEAIYVTDSDANASIGMKKYFVGVNAHGKVAISAKKIEGENIGAQVLGLFTLSSGKDIWQKLS | 60
* PRT-149 (protein) MANQEIRYSEVTPYHVTSVWTKGVTPPANFTQGEDVFHAPYVANQGWYDITKTFNGKDDLLCGAATAGNMLHWWFDQNKDQIKRYLEEHPEKQKINFNGEQMFDVKEAIDTKNHQLDSKLFEYFKEKAFPYLSTKHLGVFPDHVIDMFINGYRLSLTNHGPTPVKRQTKDPRGGIFDAVFGRGDQTKLLTSRHDFKEKNLKEISDLIKKELTEGKALGLSHTYANVRINHVINLWGADFDSNGNLKAIYVTDSDSNASIGMKKYFVGVNSAGKVAISAKEIKEDNIGAQVLGLFTLSTGQKSWNKTN | 0
